Target: NRAS G12D C118S (Homo sapiens (Human), UniProt P01111, C118S/G12D)
Sequence (P01111 whole entry G12D/C118S): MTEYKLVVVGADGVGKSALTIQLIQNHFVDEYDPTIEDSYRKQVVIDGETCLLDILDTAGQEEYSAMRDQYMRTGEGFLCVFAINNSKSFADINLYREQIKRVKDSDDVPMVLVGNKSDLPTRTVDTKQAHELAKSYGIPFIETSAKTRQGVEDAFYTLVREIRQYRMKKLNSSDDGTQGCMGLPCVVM
Assay: NRas G12D Surface Plasmon Resonance (SPR) binding assay
Details: Avi-tagged biotinylated NRAS G12D C118S on streptavidin chip, 25° C., 1:1 kinetic or steady-state fit
Entries and their Kd
Report the figure in nM without appending any unit label.

| Molecule | Kd, nM |
| --- | --- |
| C#Cc1c(F)ccc2cc(O)cc(-c3nc(N(C)C(C)C)c4c([C@H]5[C@@H]6CNC[C@@H]65)nn(C5CC5)c4c3F)c12 [Example 75] | 25 |
| C#Cc1c(F)ccc2cc(O)cc(-c3ncc4c([C@H]5[C@@H]6CNC[C@@H]65)nn(C(C)C)c4c3F)c12 [Example 24] | 824 |
| C#Cc1c(F)ccc2cc(O)cc(-c3nc(OC(F)F)c4c([C@H]5[C@@H]6CNC[C@@H]65)nn(C5CC5)c4c3F)c12 [Example 66] | 114 |

Field: next molecule
Exercise: Quick one: Kd of C#Cc1c(F)ccc2cc(O)cc(-c3ncc4c(N5CCNCC5)nn(CC)c4c3F)c12 [Example 10] ?
Key: 38700
